Test system: soybean rust fungus (Phakopsora pachyrhizi) having an amino acid substitution of F129L in a mitochondrial cytochrome b protein
Assay: Leaf disc test of control of soybean rust (lesion area) after spraying the test compound
Assay type: in vivo
Settings: Comparative Test Example 1, according to Test Example 1
Below: a set of entries, each annotated with reported Lesion area (%) at the concentration of 50 ppm.
MEASURED PARAMETER: Lesion area (%) at the concentration of 50 ppm

1) CO/C=C(/C(=O)OC)n1ccc2ccc(C#CC3CC3)cc21    0%
2) CNC(=O)/C(=N/OC)c1ccccc1Oc1ccccc1 [Metominostrobin, reference compound]    100%
3) CNC(=O)/C(=N/OC)c1ccccc1COc1cc(C)ccc1C [Dimoxystrobin, reference compound]    100%
4) CO/C=C(/C(=O)OC)n1ncc2ccc(-c3ccccc3)cc21    0%
5) CO/C=C(/C(=O)OC)n1ccc2ccc(/C(C)=N/OC)cc21    0%
6) CO/C=C(/C(=O)OC)c1ccccc1Oc1cc(Oc2ccccc2C#N)ncn1 [Azoxystrobin, reference compound]    100%
7) CO/C=C(/C(=O)OC)n1c2ccccc2c2ccc(Br)cc21    0%
